B1: HDV Ribozyme (parent)
chain: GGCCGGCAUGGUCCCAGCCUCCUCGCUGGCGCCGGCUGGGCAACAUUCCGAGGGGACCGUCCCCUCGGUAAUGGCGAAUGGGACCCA

- Variants of: B1
- method_notes: self-cleavage, relative activity (ratio to wild type); higher = more cleavage; co-transcriptional
In this section we review reported self-cleavage values for a set of variants.

| query_sequence | self-cleavage |
| --- | --- |
| GGCCGGCAUGGUCCCAGCCUCCUCGCUGGCGCCGGCUGGGCAACAUUCCGAGGGGACCGUCCCCUCGGUAAUGGCUGAUGGGACCCA | 0.978 |

Query: Provide one value: measured self-cleavage of GGCCGGCAUGGUCCCAGCCUCCUCGCUGGCGCCGGCUGGGCAUCAUUCCAAGGGGACCGUCCCCUCGGUAAUGGCGAAUGGGACCCA
Reply: 0.47
